Where do the numbers come from? From patent US20260083865A1.

Test target: recombinant human PSMA (Homo sapiens, UniProt Q04609)
Sequence (Q04609 whole entry): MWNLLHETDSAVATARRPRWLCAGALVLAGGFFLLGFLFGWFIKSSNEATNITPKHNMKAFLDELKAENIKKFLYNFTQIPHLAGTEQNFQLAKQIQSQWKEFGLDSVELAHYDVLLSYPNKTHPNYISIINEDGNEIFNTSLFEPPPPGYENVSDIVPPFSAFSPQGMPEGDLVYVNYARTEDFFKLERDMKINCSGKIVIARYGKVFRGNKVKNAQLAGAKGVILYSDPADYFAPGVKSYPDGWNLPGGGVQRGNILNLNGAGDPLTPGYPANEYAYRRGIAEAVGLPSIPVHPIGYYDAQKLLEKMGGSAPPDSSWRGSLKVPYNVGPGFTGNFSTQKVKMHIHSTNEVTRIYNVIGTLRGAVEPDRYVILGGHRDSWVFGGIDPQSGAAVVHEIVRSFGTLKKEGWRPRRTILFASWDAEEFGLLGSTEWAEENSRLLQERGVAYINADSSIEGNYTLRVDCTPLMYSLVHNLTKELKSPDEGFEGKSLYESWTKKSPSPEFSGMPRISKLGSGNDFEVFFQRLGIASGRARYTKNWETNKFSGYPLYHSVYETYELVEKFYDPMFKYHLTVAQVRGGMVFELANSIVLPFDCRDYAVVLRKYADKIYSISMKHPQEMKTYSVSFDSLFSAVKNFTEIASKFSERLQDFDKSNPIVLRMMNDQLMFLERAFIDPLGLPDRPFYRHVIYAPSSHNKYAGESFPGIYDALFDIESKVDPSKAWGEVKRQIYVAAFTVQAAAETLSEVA
Assay details: Enzyme inhibition assay (GCPII Inhibitor Screening Kit, fluorescence-based)
Run parameters: carboxypeptidase activity of recombinant human PSMA; highest final concentration 1 μM
pIC50: −log10 of the molar value. Numbered stars: 1 amine (or outer) side, 2 acyl side, 3 side chain; on linkers, the order of the positions; unused ones are H or OH. Bridge positions count the residues as written; N and C are the ends. Square brackets hold non-standard residues; d marks the D form. Peptide text beside a SMILES is read from it. * marks the point of attachment. DOTA = O=C(O)CN1CCN(CC(=O)O)CCN(CC(=O)*)CCN(CC(=O)O)CC1; Phe(4-Cl) = N[C@@H](Cc1ccc(Cl)cc1)C(=O)O; Arg(Me) = CNC(=N)NCCC[C@H](N)C(=O)O; Ethylenediamine = C(CN[*:2])N[*:1]; X1 = O=C(CC1CCN([*:1])CC1)[*:2]; Lys(Me) = CNCCCC[C@H](N)C(=O)O; Tle = CC(C)(C)[C@H](N)C(=O)O; Aib = CC(C)(N)C(=O)O
Experimental endpoint: pIC50

[[record]]
compound = "CC(=O)NC(C)(C)C(=O)N[C@@H](Cc1ccc(Cl)cc1)C(=O)N[C@H]1CSSC[C@@H](C(=O)N[C@H](C(N)=O)C(C)(C)C)NC(=O)[C@H](CC(N)=O)NC(=O)C(C)(C)NC(=O)[C@H](CCCNC(=N)N)NC(=O)[C@H](CCCCN)NC1=O [PSM-0424] (Ac-[Aib][Phe(4-Cl)]CKR[Aib]NC[Tle]-NH2; disulfide 3-8)"
experimental_endpoint = "pIC50"
assay_value = "< 6.00"

[[record]]
compound = "CC(=O)NC(C)(C)C(=O)N[C@@H](Cc1ccc(Cl)cc1)C(=O)N[C@H]1CSSC[C@@H](C(=O)N[C@H](C(=O)NCCNC(=O)CN2CCN(CC(=O)O)CCN(CC(=O)O)CCN(CC(=O)O)CC2)C(C)(C)C)NC(=O)[C@H](CC(N)=O)NC(=O)C(C)(C)NC(=O)[C@H](CCCNC(=N)N)NC(=O)[C@H](CCCCN)NC1=O [PSM-0516] (Ac-[Aib][Phe(4-Cl)]CKR[Aib]NC[Tle]-{Ethylenediamine-DOTA}; disulfide 3-8)"
experimental_endpoint = "pIC50"
assay_value = "< 6.00"

[[record]]
compound = "CNCCCC[C@@H]1NC(=O)[C@@H](NC(=O)[C@H](Cc2ccc(Cl)cc2)NC(=O)C(C)(C)NC(=O)[C@@H](NC(=O)CC2CCN(C(=O)CN3CCN(CC(=O)O)CCN(CC(=O)O)CCN(CC(=O)O)CC3)CC2)[C@@H](C)O)CSSC[C@@H](C(=O)N[C@H](C(=O)N[C@H](C(N)=O)[C@@H](C)O)C(C)(C)C)NC(=O)[C@H](CC(N)=O)NC(=O)C(C)(C)NC(=O)[C@H](CCCNC(=N)NC)NC1=O [PSM-0194] ({DOTA}-[X1]T[Aib][Phe(4-Cl)]C[Lys(Me)][Arg(Me)][Aib]NC[Tle]T-NH2; disulfide 5-10)"
experimental_endpoint = "pIC50"
assay_value = "< 6.00"

[[record]]
compound = "C[C@@H](O)[C@H](NC(=O)[C@@H](NC(=O)[C@@H]1CSSC[C@H](NC(=O)[C@H](Cc2ccc(Cl)cc2)NC(=O)C(C)(C)NC(=O)[C@@H](NC(=O)CC2CCN(C(=O)CN3CCN(CC(=O)O)CCN(CC(=O)O)CCN(CC(=O)O)CC3)CC2)[C@@H](C)O)C(=O)N[C@@H](CCCCN)C(=O)N[C@@H](CCCNC(=N)N)C(=O)N[C@@H](CCC(=O)O)C(=O)N[C@@H](CC(N)=O)C(=O)N1)C(C)(C)C)C(N)=O [PSM-0416] ({DOTA}-[X1]T[Aib][Phe(4-Cl)]CKRENC[Tle]T-NH2; disulfide 5-10)"
experimental_endpoint = "pIC50"
assay_value = "< 6.00"

